test_description: Aqueous solubility
Assay type: physicochemical
study_conditions: aqueous medium at pH 7.4 (buffer not specified), pH 7.4, aqueous buffer; read-out: aqueous solubility
observation_type: solubility

compound="O=C(Nc1ccccc1Cl)c1cnc2ccc(C3CCNCC3)cn12 [A-38]" observed_value="> 10000 µg/mL"

* * *

target_system: EphA2 (Homo sapiens)
test_description: Eph receptor kinase activity assay (radiometric), EphA2
Format: biochemical
study_conditions: Table 2, Example 12
// values below are reported IC50
observation_type: IC50 (nM)

input_smiles=COc1ccccc1-c1ccc2ncc(C(=O)Nc3ccccc3Cl)n2c1 target_system="EphA2 (Homo sapiens)" observed_value=315
input_smiles=O=C(Nc1ccccc1Cl)c1cnc2ccc(-c3ccccc3O)cn12 target_system="EphA2 (Homo sapiens)" observed_value=345
input_smiles=Cc1ccccc1-c1ccc2ncc(C(=O)Nc3ccccc3Cl)n2c1 target_system="EphA2 (Homo sapiens)" observed_value=245

* * *

test_description: Preliminary in vivo pharmacokinetic evaluation, IP, plasma and brain concentrations
Design: species or system Sprague-Dawley rats
study_conditions: rat, plasma; IP 3 mg/kg in 100% saline, male Sprague-Dawley rats, mono-oxalate salt
observation_type: Cmax (ng/mL)

input_smiles=O=C(Nc1ccccc1Cl)c1cnc2ccc(C3CCNCC3)cn12 observation_type=Cmax observed_value=221

* * *

test_description: Aqueous solubility
Type: physicochemical
study_conditions: aqueous solution, aqueous buffer; oxalate salt, pH 7.4; read-out: aqueous solubility of the oxalate salt
observation_type: solubility

input_smiles=O=C(Nc1ccccc1Cl)c1cnc2ccc(C3CCNCC3)cn12 observation_type=solubility observed_value="> 10000 µg/mL"

* * *

// values below are reported remaining activity at 0.1 µM
target_system: EphB4 (Homo sapiens)
Sequence (P54760 16-987): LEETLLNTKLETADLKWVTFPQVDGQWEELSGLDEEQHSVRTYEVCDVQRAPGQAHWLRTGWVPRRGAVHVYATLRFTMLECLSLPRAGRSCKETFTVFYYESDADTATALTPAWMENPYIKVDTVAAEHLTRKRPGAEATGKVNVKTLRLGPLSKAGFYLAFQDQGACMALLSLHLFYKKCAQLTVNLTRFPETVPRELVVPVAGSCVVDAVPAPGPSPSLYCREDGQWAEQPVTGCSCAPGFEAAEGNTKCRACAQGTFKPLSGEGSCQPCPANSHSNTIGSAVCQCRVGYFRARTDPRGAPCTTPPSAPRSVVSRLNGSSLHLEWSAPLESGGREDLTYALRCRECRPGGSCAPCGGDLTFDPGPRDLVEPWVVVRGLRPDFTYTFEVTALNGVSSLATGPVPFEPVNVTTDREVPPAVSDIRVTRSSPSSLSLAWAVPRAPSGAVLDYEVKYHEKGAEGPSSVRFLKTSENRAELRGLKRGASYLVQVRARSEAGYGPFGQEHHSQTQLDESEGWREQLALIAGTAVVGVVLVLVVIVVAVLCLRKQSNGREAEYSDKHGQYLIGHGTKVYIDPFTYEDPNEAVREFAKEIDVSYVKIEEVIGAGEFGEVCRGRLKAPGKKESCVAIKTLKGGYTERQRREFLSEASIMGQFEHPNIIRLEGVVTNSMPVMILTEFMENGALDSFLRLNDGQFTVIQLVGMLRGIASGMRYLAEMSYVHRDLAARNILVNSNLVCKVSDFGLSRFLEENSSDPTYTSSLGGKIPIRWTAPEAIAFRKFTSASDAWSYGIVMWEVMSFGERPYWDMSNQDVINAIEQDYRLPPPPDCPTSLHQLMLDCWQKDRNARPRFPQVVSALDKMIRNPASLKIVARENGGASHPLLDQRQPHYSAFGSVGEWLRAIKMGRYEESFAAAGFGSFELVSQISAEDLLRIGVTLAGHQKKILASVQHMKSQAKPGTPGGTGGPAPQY
test_description: Eph receptor kinase activity assay (radiometric), EphB4
Format: biochemical
study_conditions: 100 nM compound; read-out: EphB4 % act 100 nM
observation_type: remaining activity at 0.1 µM (%)

molecule="NC(=O)c1cccc(-c2ccc3ncc(C(=O)Nc4ccccc4Cl)n3c2)c1 [compound 110]" observed_value=48
molecule="O=C(Nc1ccccc1Cl)c1cnc2ccc(-c3ccccn3)cn12 [compound 112]" observed_value=7
molecule="Cc1cccc(-c2ccc3ncc(C(=O)Nc4ccccc4Cl)n3c2)c1 [compound 105]" observed_value=93.8
molecule="CN(C)CC(=O)N1CCC(c2ccc3ncc(C(=O)Nc4ccccc4Cl)n3c2)CC1 [compound 119]" observed_value=76.3

* * *

target_system: EphB3 (Homo sapiens, UniProt P54753)
Sequence (P54753 34-998): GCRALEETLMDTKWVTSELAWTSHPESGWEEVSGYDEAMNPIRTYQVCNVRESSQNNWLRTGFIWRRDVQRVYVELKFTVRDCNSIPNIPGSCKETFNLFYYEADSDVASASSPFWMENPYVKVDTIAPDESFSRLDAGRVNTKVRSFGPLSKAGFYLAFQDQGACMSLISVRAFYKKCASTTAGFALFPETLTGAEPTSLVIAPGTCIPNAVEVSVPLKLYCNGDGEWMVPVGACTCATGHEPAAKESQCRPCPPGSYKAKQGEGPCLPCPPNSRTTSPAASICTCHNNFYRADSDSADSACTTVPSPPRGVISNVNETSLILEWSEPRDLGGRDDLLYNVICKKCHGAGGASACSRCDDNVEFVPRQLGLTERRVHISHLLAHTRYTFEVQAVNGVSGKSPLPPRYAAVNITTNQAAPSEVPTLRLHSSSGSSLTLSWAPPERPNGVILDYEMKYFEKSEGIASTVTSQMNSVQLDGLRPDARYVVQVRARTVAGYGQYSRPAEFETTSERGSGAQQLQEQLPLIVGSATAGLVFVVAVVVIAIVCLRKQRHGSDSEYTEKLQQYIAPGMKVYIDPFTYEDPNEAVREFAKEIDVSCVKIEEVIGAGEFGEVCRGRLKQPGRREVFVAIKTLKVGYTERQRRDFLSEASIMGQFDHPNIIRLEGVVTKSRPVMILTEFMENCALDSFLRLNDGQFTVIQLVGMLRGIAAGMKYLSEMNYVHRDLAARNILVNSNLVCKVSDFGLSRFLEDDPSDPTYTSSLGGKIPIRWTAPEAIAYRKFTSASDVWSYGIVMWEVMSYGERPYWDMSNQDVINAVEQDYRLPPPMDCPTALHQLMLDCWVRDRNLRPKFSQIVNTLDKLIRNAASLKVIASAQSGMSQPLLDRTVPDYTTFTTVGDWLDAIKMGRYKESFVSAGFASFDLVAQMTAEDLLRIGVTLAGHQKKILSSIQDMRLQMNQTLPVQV
test_description: EphB3 radiometric kinase activity assay (33P ATP filter binding)
Type: biochemical
study_conditions: 30 nM compound; read-out: EphB3 % act 30 nM
observation_type: remaining activity at 0.03 µM (%)

molecule="O=C(Nc1ccccc1Cl)c1cnc2ccc(-c3ccccc3O)cn12 [compound 116]" target_system="EphB3 (Homo sapiens, UniProt P54753)" observed_value=65.5
molecule="COc1ccc(Cl)c(NC(=O)c2cnc3ccc(C4CCNCC4)cn23)c1 [compound 118]" target_system="EphB3 (Homo sapiens, UniProt P54753)" observed_value=73.9
molecule="CN(C)CC(=O)N1CCC(c2ccc3ncc(C(=O)Nc4ccccc4Cl)n3c2)CC1 [compound 119]" target_system="EphB3 (Homo sapiens, UniProt P54753)" observed_value=90.3
molecule="Cc1ccccc1-c1ccc2ncc(C(=O)Nc3ccccc3Cl)n2c1 [compound 106]" target_system="EphB3 (Homo sapiens, UniProt P54753)" observed_value=93.8
molecule="COc1ccc(-c2ccc3ncc(C(=O)Nc4ccccc4Cl)n3c2)cc1 [compound 102]" target_system="EphB3 (Homo sapiens, UniProt P54753)" observed_value=92.7
molecule="COc1cccc(-c2ccc3ncc(C(=O)Nc4ccccc4Cl)n3c2)c1 [compound 103]" target_system="EphB3 (Homo sapiens, UniProt P54753)" observed_value=86.2
molecule="Cc1cccc(-c2ccc3ncc(C(=O)Nc4ccccc4Cl)n3c2)c1 [compound 105]" target_system="EphB3 (Homo sapiens, UniProt P54753)" observed_value=81.1
molecule="COc1ccccc1-c1ccc2ncc(C(=O)Nc3ccccc3Cl)n2c1 [compound 101]" target_system="EphB3 (Homo sapiens, UniProt P54753)" observed_value=62
molecule="Cc1ccc(-c2ccc3ncc(C(=O)Nc4ccccc4Cl)n3c2)cc1 [compound 104]" target_system="EphB3 (Homo sapiens, UniProt P54753)" observed_value=60.5
molecule="COc1cccc(NC(=O)c2cnc3ccc(C4CCNCC4)cn23)c1Cl [compound 117]" target_system="EphB3 (Homo sapiens, UniProt P54753)" observed_value=110

* * *

target_system: EphA2 (Homo sapiens, UniProt P29317)
Sequence (P29317 24-976): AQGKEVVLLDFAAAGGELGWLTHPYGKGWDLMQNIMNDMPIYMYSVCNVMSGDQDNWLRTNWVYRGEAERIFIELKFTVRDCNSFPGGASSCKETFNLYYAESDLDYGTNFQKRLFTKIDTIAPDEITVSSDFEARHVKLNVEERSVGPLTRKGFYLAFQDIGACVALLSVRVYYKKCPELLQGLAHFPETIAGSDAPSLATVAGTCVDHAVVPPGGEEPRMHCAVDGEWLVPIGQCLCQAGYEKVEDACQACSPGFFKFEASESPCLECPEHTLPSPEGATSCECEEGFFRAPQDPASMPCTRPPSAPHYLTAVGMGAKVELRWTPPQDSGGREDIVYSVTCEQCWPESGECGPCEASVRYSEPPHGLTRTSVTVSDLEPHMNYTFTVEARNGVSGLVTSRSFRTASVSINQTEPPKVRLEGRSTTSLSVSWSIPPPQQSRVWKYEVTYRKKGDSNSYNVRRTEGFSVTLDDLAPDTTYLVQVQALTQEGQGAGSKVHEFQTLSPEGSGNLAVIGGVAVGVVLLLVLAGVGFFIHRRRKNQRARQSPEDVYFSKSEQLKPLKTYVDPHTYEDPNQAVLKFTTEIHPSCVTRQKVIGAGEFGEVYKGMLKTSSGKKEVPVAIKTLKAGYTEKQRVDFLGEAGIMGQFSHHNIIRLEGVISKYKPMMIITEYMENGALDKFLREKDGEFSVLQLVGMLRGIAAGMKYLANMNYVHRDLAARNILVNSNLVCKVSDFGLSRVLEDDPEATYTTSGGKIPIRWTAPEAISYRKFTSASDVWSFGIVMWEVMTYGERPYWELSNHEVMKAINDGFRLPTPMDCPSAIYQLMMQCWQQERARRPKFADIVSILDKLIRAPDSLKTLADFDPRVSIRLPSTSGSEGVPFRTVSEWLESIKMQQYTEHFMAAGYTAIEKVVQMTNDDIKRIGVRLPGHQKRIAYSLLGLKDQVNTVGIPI
test_description: Eph receptor kinase activity assay (radiometric), EphA2
Type: biochemical
study_conditions: 10 nM compound; read-out: EphA2 % act 10 nM
observation_type: remaining activity at 0.01 µM (%)

input_smiles=O=C(Nc1ccccc1Cl)c1cnc2ccc(-c3ncccn3)cn12 observation_type="remaining activity at 0.01 µM" observed_value=115
input_smiles=COc1ccc(Cl)c(NC(=O)c2cnc3ccc(C4CCNCC4)cn23)c1 observation_type="remaining activity at 0.01 µM" observed_value=104
input_smiles=O=C(Nc1ccccc1Cl)c1cnc2ccc(-c3ccccn3)cn12 observation_type="remaining activity at 0.01 µM" observed_value=53
input_smiles=O=C(Nc1ccccc1Cl)c1cnc2ccc(-c3cccnc3)cn12 observation_type="remaining activity at 0.01 µM" observed_value=52
input_smiles=COc1cccc(NC(=O)c2cnc3ccc(C4CCNCC4)cn23)c1Cl observation_type="remaining activity at 0.01 µM" observed_value=95.8
input_smiles=NCc1cccc(-c2ccc3ncc(C(=O)Nc4ccccc4Cl)n3c2)c1 observation_type="remaining activity at 0.01 µM" observed_value=55
input_smiles=O=C(Nc1ccccc1Cl)c1cnc2ccc(-c3ccccc3O)cn12 observation_type="remaining activity at 0.01 µM" observed_value=76.4
input_smiles=COc1ccccc1-c1ccc2ncc(C(=O)Nc3ccccc3Cl)n2c1 observation_type="remaining activity at 0.01 µM" observed_value=67.7

* * *

target_system: EphB4 (Homo sapiens)
test_description: Eph receptor kinase activity assay (radiometric), EphB4
Type: biochemical
study_conditions: Table 2, Example 12
observation_type: IC50 (nM)

input_smiles=COc1ccccc1-c1ccc2ncc(C(=O)Nc3ccccc3Cl)n2c1 value_unit=nM observed_value=675
input_smiles=O=C(Nc1ccccc1Cl)c1cnc2ccc(-c3ccccc3O)cn12 value_unit=nM observed_value=687
input_smiles=Cc1ccccc1-c1ccc2ncc(C(=O)Nc3ccccc3Cl)n2c1 value_unit=nM observed_value=675

* * *

target_system: EphB4 (Homo sapiens)
test_description: Eph receptor kinase activity assay (radiometric), EphB4
Assay type: biochemical
study_conditions: 30 nM compound; read-out: EphB4 % act 30 nM
// values below are reported remaining activity at 0.03 µM
observation_type: remaining activity at 0.03 µM (%)

input_smiles=O=C(Nc1ccccc1Cl)c1cnc2ccc(-c3ccccc3O)cn12 value_unit=% observed_value=103
input_smiles=COc1ccccc1-c1ccc2ncc(C(=O)Nc3ccccc3Cl)n2c1 value_unit=% observed_value=101
input_smiles=Cc1cccc(-c2ccc3ncc(C(=O)Nc4ccccc4Cl)n3c2)c1 value_unit=% observed_value=109
input_smiles=COc1cccc(-c2ccc3ncc(C(=O)Nc4ccccc4Cl)n3c2)c1 value_unit=% observed_value=106
input_smiles=COc1cccc(NC(=O)c2cnc3ccc(C4CCNCC4)cn23)c1Cl value_unit=% observed_value=95.6
input_smiles=COc1ccc(-c2ccc3ncc(C(=O)Nc4ccccc4Cl)n3c2)cc1 value_unit=% observed_value=103
input_smiles=Cc1ccccc1-c1ccc2ncc(C(=O)Nc3ccccc3Cl)n2c1 value_unit=% observed_value=106
input_smiles=CN(C)CC(=O)N1CCC(c2ccc3ncc(C(=O)Nc4ccccc4Cl)n3c2)CC1 value_unit=% observed_value=75.9
input_smiles=Cc1ccc(-c2ccc3ncc(C(=O)Nc4ccccc4Cl)n3c2)cc1 value_unit=% observed_value=95.5
input_smiles=COc1ccc(Cl)c(NC(=O)c2cnc3ccc(C4CCNCC4)cn23)c1 value_unit=% observed_value=97.5
